Data origin: PubChem BioAssay AID651804

- Target of assay: Transcriptional regulator ERG (Homo sapiens)
- Test description: qHTS for Small Molecule Inhibitors of the ERG Ets/DNA interaction: HTRF assay against cherry picks
- Condition notes: His-ERG Ets domain with biotin-DNA; series mostly up to 154 µM
About 20 (2%) of roughly 1,200 compounds were called active. About 23% were inconclusive and are not listed. Calls follow the shape of the dose curve; as a rule, active = well fitted inhibition curve with a large enough effect; inconclusive = small, poorly fitted or top-dose-only effect; inactive = no such curve, though single readings can be large or run the other way. Many of the other results were omitted from the sample, so actives are more common in it than they were.
Reply using exactly one outcome from active, inactive

Reference set (5 entries):
[
  {
    "Compound": "Nc1cccc2nc3ccccc3cc12",
    "Label class": "active"
  },
  {
    "Compound": "Cc1sc2nc(CSC(C)C(=O)Nc3ccc(C(N)=O)cc3)[nH]c(=O)c2c1C (configuration not stated)",
    "Label class": "inactive"
  },
  {
    "Compound": "CC(=O)N1CCN(c2nnc(-c3ccccc3)c3ccccc23)CC1",
    "Label class": "inactive"
  },
  {
    "Compound": "CN(C)CCCNc1c2ccccc2nc2ccccc12",
    "Label class": "inactive"
  },
  {
    "Compound": "c1ccc(Oc2ncnc3ccccc23)cc1",
    "Label class": "inactive"
  }
]

Exam item: Call for entry Cc1cc(C)nc(N2C(=O)CC(Cc3ccc(Cl)cc3)C2=O)n1 (configuration not stated) :
Marked response: inactive

Exam item: Call for entry O=C1CC(Cc2ccccc2)C(=O)N1c1ccc(Cl)cn1 (configuration not stated) :
Marked response: inactive

Exam item: Call for entry O=C(CCc1c[nH]c2ccccc12)NCc1ccco1 :
Marked response: inactive

Exam item: Call for entry Cc1nonc1C1CCCN1C(=O)c1cc(COc2ccc(F)cc2Cl)on1 (configuration not stated) :
Marked response: inactive

Exam item: Call for entry Nc1ccccc1S(N)(=O)=O :
Marked response: inactive

Exam item: Call for entry Cc1cc(NC(=O)CCC(=O)N(CC(=O)NC2CCCC2)c2ccc(C)c(F)c2)no1 :
Marked response: inactive

Exam item: Call for entry O=C(COC(=O)/C=C/c1ccc([N+](=O)[O-])cc1)NCc1cccs1 :
Marked response: inactive
